test.target: UniProtKB P49641
Sequence (P49641 whole entry): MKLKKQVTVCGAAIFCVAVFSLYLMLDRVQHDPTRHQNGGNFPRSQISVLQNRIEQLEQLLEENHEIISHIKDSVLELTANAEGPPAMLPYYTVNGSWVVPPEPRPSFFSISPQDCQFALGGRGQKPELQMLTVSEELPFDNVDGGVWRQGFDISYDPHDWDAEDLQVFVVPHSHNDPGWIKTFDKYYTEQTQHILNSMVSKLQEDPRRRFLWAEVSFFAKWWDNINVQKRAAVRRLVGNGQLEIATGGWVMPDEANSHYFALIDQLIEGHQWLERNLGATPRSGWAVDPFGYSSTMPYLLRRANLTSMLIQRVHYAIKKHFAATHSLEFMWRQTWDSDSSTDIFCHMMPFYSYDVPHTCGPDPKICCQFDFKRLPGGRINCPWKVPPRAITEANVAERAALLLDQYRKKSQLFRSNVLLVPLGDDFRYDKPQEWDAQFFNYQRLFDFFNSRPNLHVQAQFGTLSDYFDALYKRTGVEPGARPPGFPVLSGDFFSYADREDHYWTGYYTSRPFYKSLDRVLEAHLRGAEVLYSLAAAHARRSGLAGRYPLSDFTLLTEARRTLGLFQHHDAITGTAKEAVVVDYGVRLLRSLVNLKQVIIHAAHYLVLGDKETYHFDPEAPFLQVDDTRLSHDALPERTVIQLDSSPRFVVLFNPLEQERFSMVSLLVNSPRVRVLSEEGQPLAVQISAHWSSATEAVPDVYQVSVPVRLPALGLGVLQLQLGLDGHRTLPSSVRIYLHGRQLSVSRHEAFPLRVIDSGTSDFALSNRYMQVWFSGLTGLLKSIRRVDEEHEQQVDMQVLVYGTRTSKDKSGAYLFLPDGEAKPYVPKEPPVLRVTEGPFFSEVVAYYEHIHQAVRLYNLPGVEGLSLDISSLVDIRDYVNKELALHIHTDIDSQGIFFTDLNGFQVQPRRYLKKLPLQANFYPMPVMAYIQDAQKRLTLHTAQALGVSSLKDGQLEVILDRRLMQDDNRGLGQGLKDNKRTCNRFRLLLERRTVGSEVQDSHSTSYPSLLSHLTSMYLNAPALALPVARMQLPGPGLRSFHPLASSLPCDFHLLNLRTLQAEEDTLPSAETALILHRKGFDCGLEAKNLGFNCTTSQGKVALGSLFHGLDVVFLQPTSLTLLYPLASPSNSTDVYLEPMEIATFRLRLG
assay.details: 4-MU-α-man activity assay in overexpressed cell lysates
run.conditions: Zn2+
parameter: IC50

Enquiry: // fetch IC50 given entry O=S1(=O)N[C@@H]2[C@@H](O)[C@@H](O)[C@H](O)[C@@H](CO)[C@H]2O1 [compound 6, 1,6-trans-manno-cyclosulfamidate]
Return: > 1000 µM

###

test.target: CkGH47 L310S (Caulobacter sp. K31, UniProt B0SWV2, L310S)
assay.details: Inhibition constant (V0/Vi vs inhibitor, mannose detection kit) with the CkGH47 L310S mutant
parameter: Ki (nM)
Give just the numeric value; nM need not be written.

Enquiry: // fetch Ki given entry O=S1(=O)N[C@@H]2[C@@H](O)[C@@H](O)[C@H](O)[C@@H](CO)[C@H]2O1 [compound 6, 1,6-trans-manno-cyclosulfamidate]
Return: 574

###

test.target: BtMan2A (Bacteroides thetaiotaomicron)
Construct: made in house; donated by Dr. W. Offen, University of York
Sequence (Q8AAK6 entry or part of it, change not shown): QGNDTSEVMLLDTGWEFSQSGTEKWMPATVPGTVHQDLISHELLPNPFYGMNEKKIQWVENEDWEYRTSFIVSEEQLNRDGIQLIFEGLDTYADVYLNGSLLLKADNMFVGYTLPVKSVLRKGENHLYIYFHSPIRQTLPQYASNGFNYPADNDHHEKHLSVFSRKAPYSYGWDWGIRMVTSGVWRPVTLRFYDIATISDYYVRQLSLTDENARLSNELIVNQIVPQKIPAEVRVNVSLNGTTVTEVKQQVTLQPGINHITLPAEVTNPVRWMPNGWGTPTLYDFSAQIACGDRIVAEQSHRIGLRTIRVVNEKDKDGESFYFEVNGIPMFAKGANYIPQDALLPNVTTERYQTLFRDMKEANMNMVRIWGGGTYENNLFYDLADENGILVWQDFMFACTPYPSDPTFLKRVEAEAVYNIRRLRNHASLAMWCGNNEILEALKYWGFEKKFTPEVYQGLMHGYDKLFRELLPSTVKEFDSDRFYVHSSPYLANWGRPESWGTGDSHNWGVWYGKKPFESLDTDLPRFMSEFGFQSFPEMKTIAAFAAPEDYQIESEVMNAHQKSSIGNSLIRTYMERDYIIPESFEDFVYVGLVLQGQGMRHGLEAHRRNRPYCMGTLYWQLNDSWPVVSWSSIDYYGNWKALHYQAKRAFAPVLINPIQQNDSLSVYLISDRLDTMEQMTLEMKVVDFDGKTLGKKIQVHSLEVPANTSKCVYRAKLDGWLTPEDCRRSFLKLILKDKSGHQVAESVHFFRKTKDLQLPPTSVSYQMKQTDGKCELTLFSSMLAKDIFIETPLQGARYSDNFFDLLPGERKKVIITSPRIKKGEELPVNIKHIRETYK
assay.details: 4-MU activity assay for bacterial GH2 β-mannosidase, purified enzyme
Format: biochemical
pIC50: −log10 of the molar value.
parameter: pIC50

Enquiry: // fetch pIC50 given entry O=S1(=O)N[C@@H]2[C@@H](O)[C@@H](O)[C@H](O)[C@@H](CO)[C@H]2O1 [compound 6, 1,6-trans-manno-cyclosulfamidate]
Return: < 3.00

###

test.target: MAN2C1 (Homo sapiens, UniProt Q9NTJ4)
Construct: expressed in transfected cells
Sequence (Q9NTJ4 1-1040): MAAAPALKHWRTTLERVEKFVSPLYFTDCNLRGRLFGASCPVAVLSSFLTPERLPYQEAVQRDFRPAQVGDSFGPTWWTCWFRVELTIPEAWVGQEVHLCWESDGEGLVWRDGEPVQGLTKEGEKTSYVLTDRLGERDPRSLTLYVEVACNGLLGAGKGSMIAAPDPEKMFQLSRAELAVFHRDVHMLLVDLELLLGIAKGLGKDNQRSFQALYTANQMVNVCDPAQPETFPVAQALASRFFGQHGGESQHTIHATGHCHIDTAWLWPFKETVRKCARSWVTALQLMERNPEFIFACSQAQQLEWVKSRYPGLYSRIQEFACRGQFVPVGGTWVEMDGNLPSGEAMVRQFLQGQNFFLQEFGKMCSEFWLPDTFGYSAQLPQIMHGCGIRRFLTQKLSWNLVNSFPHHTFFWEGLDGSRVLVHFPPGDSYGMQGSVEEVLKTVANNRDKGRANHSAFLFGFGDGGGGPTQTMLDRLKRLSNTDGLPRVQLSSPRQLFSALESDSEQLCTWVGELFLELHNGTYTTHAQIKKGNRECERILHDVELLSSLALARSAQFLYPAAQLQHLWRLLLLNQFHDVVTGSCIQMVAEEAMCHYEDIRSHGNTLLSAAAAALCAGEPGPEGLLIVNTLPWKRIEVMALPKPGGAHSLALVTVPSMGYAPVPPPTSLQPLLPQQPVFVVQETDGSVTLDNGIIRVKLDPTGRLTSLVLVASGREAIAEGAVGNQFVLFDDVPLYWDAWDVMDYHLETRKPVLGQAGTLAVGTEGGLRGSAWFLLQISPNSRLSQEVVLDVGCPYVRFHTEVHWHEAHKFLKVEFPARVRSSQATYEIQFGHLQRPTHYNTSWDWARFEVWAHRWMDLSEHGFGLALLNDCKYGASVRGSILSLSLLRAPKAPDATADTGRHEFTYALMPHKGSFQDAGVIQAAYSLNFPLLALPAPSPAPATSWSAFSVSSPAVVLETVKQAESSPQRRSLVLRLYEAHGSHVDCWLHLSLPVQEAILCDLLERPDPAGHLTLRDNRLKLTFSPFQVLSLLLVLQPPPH
assay.details: 4-MU-α-man activity assay in overexpressed cell lysates
Format: biochemical
run.conditions: Zn2+ (buffer supplemented with 1 mM ZnCl2 instead of CoCl2); read-out: IC50
parameter: IC50

Enquiry: Return reported IC50 for target or system MAN2C1 (Homo sapiens, UniProt Q9NTJ4), item O=S1(=O)N[C@@H]2[C@@H](O)[C@@H](O)[C@H](O)[C@@H](CO)[C@H]2O1 [compound 6, 1,6-trans-manno-cyclosulfamidate] .
Return: > 1000 µM

###

test.target: CkGH47 L310S (Caulobacter sp. K31, UniProt B0SWV2, L310S)
Sequence (B0SWV2 25-462 L310S): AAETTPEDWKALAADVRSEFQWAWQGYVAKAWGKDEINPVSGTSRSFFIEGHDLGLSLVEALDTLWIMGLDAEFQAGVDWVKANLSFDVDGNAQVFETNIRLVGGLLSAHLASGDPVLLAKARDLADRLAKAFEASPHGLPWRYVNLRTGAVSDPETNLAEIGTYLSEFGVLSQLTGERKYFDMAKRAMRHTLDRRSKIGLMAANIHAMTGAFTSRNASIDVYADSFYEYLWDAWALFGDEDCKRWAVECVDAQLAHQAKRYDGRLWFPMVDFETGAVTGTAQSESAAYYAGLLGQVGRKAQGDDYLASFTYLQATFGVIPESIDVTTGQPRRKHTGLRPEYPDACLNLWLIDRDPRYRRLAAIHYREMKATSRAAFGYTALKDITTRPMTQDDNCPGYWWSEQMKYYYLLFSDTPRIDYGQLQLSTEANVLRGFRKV
assay.details: Isothermal titration calorimetry
Format: binding, Caulobacter K31 strain
parameter: pKd
Just the number, please; pKd means minus log10 of the concentration in mol/L.

Enquiry: Return reported pKd for target or system CkGH47 L310S (Caulobacter sp. K31, UniProt B0SWV2, L310S), item O=S1(=O)N[C@@H]2[C@@H](O)[C@@H](O)[C@H](O)[C@@H](CO)[C@H]2O1 [compound 6, 1,6-trans-manno-cyclosulfamidate] .
Return: 6.01

###

test.target: MAN2B2 (Homo sapiens, UniProt Q9Y2E5)
Construct: expressed in transfected cells
Sequence (Q9Y2E5 24-1009): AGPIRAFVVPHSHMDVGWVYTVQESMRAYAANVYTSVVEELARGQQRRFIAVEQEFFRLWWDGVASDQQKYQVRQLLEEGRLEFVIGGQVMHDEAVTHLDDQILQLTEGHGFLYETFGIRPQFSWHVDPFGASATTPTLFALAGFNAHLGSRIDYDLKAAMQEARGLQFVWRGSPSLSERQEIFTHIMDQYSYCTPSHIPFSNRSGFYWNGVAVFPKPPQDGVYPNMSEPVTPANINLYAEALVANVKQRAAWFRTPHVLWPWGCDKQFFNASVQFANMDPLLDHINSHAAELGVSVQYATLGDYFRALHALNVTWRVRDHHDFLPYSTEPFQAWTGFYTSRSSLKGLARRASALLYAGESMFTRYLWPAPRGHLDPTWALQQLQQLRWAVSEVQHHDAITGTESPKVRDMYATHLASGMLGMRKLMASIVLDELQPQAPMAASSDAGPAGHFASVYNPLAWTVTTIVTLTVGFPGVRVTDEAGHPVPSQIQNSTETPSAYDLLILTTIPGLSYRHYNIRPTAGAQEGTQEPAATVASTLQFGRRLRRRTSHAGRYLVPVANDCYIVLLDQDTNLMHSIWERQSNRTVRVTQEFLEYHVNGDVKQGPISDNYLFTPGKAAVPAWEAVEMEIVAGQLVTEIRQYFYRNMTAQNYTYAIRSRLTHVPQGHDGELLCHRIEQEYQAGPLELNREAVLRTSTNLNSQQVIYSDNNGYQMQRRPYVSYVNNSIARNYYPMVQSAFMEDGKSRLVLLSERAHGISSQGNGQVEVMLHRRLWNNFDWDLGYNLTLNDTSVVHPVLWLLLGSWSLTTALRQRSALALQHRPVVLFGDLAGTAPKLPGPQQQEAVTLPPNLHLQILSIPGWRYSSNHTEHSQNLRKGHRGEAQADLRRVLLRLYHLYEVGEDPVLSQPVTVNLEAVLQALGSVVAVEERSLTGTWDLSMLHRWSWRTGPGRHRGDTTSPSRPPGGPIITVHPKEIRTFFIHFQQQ
assay.details: 4-MU-α-man activity assay in overexpressed cell lysates
Format: biochemical
run.conditions: Zn2+
parameter: IC50

Enquiry: // fetch IC50 given entry O=S1(=O)N[C@@H]2[C@@H](O)[C@@H](O)[C@H](O)[C@@H](CO)[C@H]2O1 [compound 6, 1,6-trans-manno-cyclosulfamidate]
Return: > 1000 µM
